These entries and their values trace back to patent US8853250B2.

target: hSCN9A (Homo sapiens); construct: expressed in transfected cells; test: Whole-cell patch-clamp electrophysiology, hSCN9A in HEK cells; type: cell-based; conditions: estimated IC-50 from single point % inhibition; HEK cells, 8 sec prepulse to V1/2, step to 0 mV; read-out: hSCN9A EIC-50
Endpoint name: IC50 (µM)
// return numeric value only (unit: µM, not printed)

Query: Reported IC50 for hSCN9A (Homo sapiens), given O=S(=O)(Nc1nccs1)c1ccc(S(=O)(=O)c2ccccc2)cc1 [Compound 65] ?
Result: 2.7

---

target: hSCN3A (Homo sapiens, UniProt Q9NY46); construct: expressed in transfected cells; assay: Whole-cell patch-clamp electrophysiology, hSCN3A in HEK cells; type: cell-based
Sequence (Q9NY46 whole entry): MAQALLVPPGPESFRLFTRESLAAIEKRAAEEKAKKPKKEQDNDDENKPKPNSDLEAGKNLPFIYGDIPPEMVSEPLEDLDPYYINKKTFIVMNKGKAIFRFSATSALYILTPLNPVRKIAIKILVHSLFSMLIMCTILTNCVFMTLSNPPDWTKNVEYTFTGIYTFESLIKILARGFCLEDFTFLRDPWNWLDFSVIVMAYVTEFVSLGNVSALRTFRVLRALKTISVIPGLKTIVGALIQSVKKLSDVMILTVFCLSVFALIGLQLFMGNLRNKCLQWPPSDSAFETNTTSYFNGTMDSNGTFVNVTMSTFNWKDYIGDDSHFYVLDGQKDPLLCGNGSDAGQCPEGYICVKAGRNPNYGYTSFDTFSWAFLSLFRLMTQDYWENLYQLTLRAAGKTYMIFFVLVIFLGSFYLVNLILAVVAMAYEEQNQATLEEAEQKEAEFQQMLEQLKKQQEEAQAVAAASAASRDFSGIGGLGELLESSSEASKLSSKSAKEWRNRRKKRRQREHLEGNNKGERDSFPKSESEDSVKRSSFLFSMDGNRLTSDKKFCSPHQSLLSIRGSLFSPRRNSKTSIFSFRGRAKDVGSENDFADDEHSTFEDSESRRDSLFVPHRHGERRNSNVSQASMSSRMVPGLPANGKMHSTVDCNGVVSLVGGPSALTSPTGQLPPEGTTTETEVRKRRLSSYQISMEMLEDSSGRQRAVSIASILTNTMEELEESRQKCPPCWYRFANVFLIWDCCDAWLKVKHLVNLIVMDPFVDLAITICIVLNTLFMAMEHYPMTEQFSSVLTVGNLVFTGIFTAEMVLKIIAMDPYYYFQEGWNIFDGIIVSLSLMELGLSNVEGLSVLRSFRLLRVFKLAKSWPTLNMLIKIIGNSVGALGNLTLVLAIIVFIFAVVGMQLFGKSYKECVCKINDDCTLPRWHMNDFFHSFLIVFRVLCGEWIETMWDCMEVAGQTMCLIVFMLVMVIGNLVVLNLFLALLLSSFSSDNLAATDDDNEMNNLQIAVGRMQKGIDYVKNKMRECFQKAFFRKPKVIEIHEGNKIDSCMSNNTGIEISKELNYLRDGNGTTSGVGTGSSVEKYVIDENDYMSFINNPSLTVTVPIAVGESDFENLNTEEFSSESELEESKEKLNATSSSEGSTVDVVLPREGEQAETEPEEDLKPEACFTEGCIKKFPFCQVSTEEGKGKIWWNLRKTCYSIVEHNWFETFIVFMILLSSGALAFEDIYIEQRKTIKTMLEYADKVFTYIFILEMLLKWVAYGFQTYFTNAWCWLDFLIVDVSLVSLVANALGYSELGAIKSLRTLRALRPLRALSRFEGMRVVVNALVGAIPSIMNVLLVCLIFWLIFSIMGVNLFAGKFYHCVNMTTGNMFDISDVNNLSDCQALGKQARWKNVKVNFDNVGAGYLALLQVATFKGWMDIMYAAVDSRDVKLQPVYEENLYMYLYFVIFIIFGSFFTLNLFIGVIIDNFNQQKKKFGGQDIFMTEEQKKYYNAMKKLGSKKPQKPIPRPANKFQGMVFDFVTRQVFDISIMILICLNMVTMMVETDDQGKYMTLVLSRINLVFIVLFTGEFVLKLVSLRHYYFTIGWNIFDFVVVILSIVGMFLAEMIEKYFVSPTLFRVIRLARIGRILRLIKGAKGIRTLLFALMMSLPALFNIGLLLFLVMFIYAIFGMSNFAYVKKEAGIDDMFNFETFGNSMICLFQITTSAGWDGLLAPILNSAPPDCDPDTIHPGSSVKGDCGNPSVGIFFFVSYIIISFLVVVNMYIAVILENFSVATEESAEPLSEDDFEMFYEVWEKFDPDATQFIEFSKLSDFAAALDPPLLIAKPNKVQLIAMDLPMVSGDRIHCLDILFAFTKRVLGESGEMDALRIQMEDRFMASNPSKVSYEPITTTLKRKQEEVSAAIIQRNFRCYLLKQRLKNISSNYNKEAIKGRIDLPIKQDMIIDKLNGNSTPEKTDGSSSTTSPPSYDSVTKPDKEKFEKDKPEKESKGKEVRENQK
Endpoint name: IC50 (nM)
// return numeric value only (unit: nM, not printed)

Query: Reported IC50, compound O=S(=O)(CCc1ccc(C(F)(F)F)cc1)c1ccc(S(=O)(=O)Nc2nccs2)cc1 [Compound 20] : ____
Result: 160

---

Molecular target: hSCN9A (Homo sapiens, UniProt Q15858)
Construct: expressed in transfected cells
Sequence (Q15858 whole entry): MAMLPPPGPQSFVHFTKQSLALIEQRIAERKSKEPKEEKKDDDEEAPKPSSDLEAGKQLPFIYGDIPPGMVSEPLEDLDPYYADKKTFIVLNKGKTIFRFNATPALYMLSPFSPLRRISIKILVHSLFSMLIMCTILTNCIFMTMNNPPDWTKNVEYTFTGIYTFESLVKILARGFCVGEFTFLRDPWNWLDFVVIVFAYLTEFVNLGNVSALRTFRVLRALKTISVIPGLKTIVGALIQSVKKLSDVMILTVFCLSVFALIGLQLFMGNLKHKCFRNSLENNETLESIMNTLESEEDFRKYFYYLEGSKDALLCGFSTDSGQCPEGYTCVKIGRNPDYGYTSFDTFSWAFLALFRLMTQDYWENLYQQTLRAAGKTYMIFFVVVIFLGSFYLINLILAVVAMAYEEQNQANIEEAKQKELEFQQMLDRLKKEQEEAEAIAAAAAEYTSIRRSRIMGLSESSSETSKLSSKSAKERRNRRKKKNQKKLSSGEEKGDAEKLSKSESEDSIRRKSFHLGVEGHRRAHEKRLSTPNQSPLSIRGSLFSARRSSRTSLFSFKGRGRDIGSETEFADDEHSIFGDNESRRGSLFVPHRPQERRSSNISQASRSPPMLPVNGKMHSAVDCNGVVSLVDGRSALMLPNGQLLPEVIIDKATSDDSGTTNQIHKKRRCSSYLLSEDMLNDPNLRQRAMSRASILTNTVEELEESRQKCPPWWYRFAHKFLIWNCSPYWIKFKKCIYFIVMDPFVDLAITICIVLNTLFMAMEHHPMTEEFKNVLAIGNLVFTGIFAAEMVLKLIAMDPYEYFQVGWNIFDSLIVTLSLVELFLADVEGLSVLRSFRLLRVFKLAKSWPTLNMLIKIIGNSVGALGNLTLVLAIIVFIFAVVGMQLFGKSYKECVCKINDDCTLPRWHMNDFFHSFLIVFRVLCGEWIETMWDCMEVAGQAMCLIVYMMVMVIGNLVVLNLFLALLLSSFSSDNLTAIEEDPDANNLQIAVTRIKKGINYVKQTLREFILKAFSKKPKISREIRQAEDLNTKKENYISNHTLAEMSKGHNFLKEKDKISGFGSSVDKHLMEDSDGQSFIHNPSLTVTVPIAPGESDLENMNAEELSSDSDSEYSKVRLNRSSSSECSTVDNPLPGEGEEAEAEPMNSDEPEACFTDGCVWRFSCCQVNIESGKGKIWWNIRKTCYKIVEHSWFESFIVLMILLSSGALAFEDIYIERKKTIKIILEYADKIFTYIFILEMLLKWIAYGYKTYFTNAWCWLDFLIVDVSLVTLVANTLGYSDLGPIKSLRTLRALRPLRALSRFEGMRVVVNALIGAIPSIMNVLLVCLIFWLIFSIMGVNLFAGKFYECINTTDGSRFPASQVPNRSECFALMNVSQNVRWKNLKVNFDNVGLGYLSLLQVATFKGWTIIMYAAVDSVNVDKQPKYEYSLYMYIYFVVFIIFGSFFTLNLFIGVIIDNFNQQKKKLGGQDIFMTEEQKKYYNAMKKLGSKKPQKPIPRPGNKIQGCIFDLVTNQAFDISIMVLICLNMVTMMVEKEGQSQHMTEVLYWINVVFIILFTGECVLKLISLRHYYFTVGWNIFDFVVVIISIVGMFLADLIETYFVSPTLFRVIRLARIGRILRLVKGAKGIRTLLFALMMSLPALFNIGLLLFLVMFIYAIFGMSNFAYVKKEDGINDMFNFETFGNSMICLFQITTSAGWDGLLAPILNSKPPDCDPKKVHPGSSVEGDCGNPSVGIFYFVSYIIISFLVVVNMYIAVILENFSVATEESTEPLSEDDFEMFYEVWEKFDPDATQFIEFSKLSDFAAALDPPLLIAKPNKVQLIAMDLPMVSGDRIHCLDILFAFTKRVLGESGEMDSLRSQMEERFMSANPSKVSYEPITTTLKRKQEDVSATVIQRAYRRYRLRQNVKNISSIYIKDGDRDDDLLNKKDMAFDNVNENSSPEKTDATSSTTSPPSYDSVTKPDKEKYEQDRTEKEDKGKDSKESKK
Experiment: Whole-cell patch-clamp electrophysiology, hSCN9A in HEK cells
Type: cell-based
Procedure: Human Embryonic Kidney (HEK) cells were transfected with hSCN3A or hSCN9A constructs using lipofectamine reagent (Invitrogen), using standard techniques. […] Clones were screened for expression using the whole-cell voltage-clamp technique. […] The voltage-dependence of inactivation was determined by applying a series of depolarizing prepulses (8 sec long in 10 mV increments) from a negative holding potential. […] Cells were then voltage clamped at the empirically determined V1/2. […]
Endpoint name: IC50

Query: Reported IC50 for hSCN9A (Homo sapiens, UniProt Q15858), given `O=S(=O)(CCc1ccc(C(F)(F)F)cc1)c1ccc(S(=O)(=O)Nc2nccs2)cc1` ?
Result: > 10 µM

---

biological target: hSCN3A (Homo sapiens, UniProt Q9NY46); construct: expressed in transfected cells; test: Whole-cell patch-clamp electrophysiology, hSCN3A in HEK cells; format: cell-based; details: estimated IC-50 from single point % inhibition; HEK cells, 8 sec prepulse to V1/2, step to 0 mV; read-out: hSCN3A EIC-50
Endpoint name: IC50
Reply with the number, then its unit.

Query: Reported IC50, molecule `O=S(=O)(Nc1nccs1)c1ccc(S(=O)(=O)c2ccccc2)cc1` : ____
Result: 5 µM
